Origin of measurements: patent US7576105B2

Let's go through some pKi measurements on δ-opioid receptor (Rattus norvegicus) together.
Sequence (P33533 whole entry): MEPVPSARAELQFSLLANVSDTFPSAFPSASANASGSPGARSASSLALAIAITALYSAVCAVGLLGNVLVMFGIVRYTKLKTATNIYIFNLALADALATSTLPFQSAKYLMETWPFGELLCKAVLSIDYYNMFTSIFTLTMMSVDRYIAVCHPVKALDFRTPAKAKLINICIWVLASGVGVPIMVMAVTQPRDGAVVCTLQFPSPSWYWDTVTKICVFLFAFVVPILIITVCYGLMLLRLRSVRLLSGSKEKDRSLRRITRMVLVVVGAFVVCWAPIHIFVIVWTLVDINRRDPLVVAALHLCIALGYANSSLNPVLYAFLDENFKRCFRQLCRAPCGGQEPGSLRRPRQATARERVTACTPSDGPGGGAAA
In plain terms, pKi is the concentration in mol/L turned into minus its base-10 logarithm.

structureSmilesString: CCCN1CCC(N(Cc2ccccc2O)c2ccc(C(=O)N(CC)CC)cc2)CC1
studySystem: δ-opioid receptor (Rattus norvegicus)
pKi: 5.46

Short answer on δ-opioid receptor (Rattus norvegicus) for `CCN(CC)C(=O)c1ccc(N(Cc2ccccc2)C2CCN(CCCN(C)C)CC2)cc1` , pKi: 5.75

Item `CCN(CC)C(=O)c1ccc(N(Cc2ccccc2)C2CCN(C(C)C)CC2)cc1` ; assay system δ-opioid receptor (Rattus norvegicus); pKi reported as 6.23

Summary: `CCCN1CCC(N(Cc2cccc(OC)c2)c2ccc(C(=O)N(CC)CC)cc2)CC1` , δ-opioid receptor (Rattus norvegicus), pKi = 6.62
